tested on: TREx-HeLa-Vpr; experiment: Inhibition of -c-myc-His6 tagged HIV1 NL4-3 Vpr expressed in human TREx-HeLa-Vpr cells assessed as cell viability at 1.56 uM after 48 hrs in presence of tetracycline by WST8 assay; format: cell-based; conditions: Human immunodeficiency virus 1
Each record here notes measured Activity.
MEASURED METRIC: Activity (%)

MOL: C=C[C@@]1(C)CCC2=C(C[C@@H](O)[C@H]3C(C)(C)CCC[C@]23C)C1=O
SUBJECT OF TEST: TREx-HeLa-Vpr
MEASURED METRIC: Activity
VALUE MEASURED: 114
//
MOL: C=C[C@]1(C)C=C2[C@@H](O)[C@@H](O)[C@H]3C(C)(C)CCC[C@]3(C)[C@@]2(O)CC1
SUBJECT OF TEST: TREx-HeLa-Vpr
MEASURED METRIC: Activity
VALUE MEASURED: 130
//
MOL: C=C[C@@]1(C)CCC2=C(C[C@@H](O)[C@H]3C(C)(C)CCC[C@]23C)[C@@H]1OC
SUBJECT OF TEST: TREx-HeLa-Vpr
MEASURED METRIC: Activity
VALUE MEASURED: 126
//
MOL: C=C[C@]1(C)C=C2[C@H](OC(C)=O)[C@@H](O)[C@H]3C(C)(C)CCC[C@]3(C)[C@H]2CC1
SUBJECT OF TEST: TREx-HeLa-Vpr
MEASURED METRIC: Activity
VALUE MEASURED: 127
//
MOL: C=C[C@]1(C)C=C2C[C@@H](O)[C@H]3C(C)(C)CC[C@H](OC(C)=O)[C@]3(C)[C@H]2CC1
SUBJECT OF TEST: TREx-HeLa-Vpr
MEASURED METRIC: Activity
VALUE MEASURED: 130
//
MOL: C=C[C@@]1(C)CCC2=C(CC[C@H]3C(C)(C)CCC[C@]23C)[C@H]1O
SUBJECT OF TEST: TREx-HeLa-Vpr
MEASURED METRIC: Activity
VALUE MEASURED: 116
//
MOL: C=C[C@@]1(C)CCC2=C(C[C@@H](O)[C@H]3C(C)(C)CCC[C@]23C)[C@@H]1O
SUBJECT OF TEST: TREx-HeLa-Vpr
MEASURED METRIC: Activity
VALUE MEASURED: 180
